All figures here come from the kinase profiling compilation of Christmann-Franck et al. (2016).

- experimental-target: MAPKAPK5 (human) (UniProt Q8IW41)
- Sequence (Q8IW41 whole entry, looked up): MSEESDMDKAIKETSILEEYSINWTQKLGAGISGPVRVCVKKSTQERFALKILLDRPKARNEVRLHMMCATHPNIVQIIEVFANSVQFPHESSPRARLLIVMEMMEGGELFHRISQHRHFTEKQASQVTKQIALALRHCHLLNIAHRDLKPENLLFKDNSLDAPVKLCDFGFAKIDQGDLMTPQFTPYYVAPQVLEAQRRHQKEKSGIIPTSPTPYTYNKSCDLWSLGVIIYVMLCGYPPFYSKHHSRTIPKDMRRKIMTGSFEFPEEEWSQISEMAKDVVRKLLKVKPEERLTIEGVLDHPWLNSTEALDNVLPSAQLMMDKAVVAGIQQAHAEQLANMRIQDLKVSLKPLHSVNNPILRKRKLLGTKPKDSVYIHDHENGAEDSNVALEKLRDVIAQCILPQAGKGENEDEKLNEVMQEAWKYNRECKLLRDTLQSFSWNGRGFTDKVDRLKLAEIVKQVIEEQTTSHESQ
- method-summary: radiometric filter-binding kinase assay
- experimental-setup: compound 0.01 µM
// reported residual activity per item
assay-endpoint: residual activity

CNC(=O)C1[C@H]2O[C@@](C)([C@@H]1N)n1c3ccccc3c3c4c(c5c6ccccc6n2c5c31)C(=O)NC4 (stereo partly specified) ... 81%
CNc1nc(-c2ccc3c(N)n[nH]c3c2)cc(N2C[C@@H](C(=O)NC3CCCCC3)CC[C@H]2C)n1 ... 81%
C/C(=C1/C(=O)Nc2ccc(NC(N)=O)cc21)c1ccc[nH]1 ... 90%
COc1ccc(N(C(=O)Nc2c(C)cccc2C)c2cc(Nc3ccc(N4CCN(C)CC4)cc3)ncn2)c(OC)c1 ... 119%
O=C(Nc1nc2cc(C(F)(F)F)cc(NC3CC3)n2n1)c1cccnc1 ... 97%
COc1cc(O)c2c(c1)[C@H]1OC1C[C@H](O)[C@H](O)C(=O)/C=C\C[C@H](C)OC2=O (stereo partly specified) ... 74%

###

- experimental-target: UniProt:Q9NWZ3
- Sequence (Q9NWZ3 whole entry, looked up): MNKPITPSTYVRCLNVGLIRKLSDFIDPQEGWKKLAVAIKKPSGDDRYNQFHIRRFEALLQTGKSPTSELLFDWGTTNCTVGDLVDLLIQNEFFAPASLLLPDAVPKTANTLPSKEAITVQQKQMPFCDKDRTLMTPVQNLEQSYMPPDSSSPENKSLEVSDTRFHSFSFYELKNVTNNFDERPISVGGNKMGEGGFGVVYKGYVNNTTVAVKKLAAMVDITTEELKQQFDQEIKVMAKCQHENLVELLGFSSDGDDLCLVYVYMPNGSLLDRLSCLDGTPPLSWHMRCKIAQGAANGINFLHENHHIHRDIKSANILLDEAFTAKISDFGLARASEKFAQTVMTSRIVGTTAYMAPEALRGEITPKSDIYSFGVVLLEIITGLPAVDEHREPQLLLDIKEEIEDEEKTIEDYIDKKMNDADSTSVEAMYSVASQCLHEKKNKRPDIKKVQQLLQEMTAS
- method-summary: radiometric filter-binding kinase assay
- experimental-setup: compound 0.1 µM
Mark yes (1) only when residual activity stays strictly below 90%. Values equal to the cut-off are no (0).

NC(=O)c1cc(-c2ccnc(NC3CCCCC3)c2)nc(N2CCNCC2)c1 ... no (0)
COc1cc(O)c2c(c1)/C=C/C[C@H](O)[C@H](O)C(=O)/C=C\C[C@H](C)OC2=O ... no (0)
O=C(NCCCNc1nc(Nc2cccc(CN3CCOCC3)c2)ncc1C1CC1)C1CCC1 ... no (0)
CN(C)C/C=C/C(=O)Nc1cccc(C(=O)Nc2ccc(Nc3nccc(-c4cccnc4)n3)cc2)c1 ... yes (1)
Cc1ccc(-c2ccc3c(ccc4sc5c(c43)NC[C@@H](C)NC5=O)n2)cn1 ... no (0)
CCn1c(-c2nonc2N)nc2cncc(CNC3CCNCC3)c21 ... no (0)
COc1ccc(-n2ncc3cnc(Nc4cc(OC)c(OC)c(OCCCN5CCN(C)CC5)c4)nc32)cc1 ... yes (1)
CNC(=O)C1[C@H]2O[C@@](C)([C@@H]1N)n1c3ccccc3c3c4c(c5c6ccccc6n2c5c31)C(=O)NC4 (some centres not stated) ... yes (1)
Cc1ccc(Sc2cnc(Nc3cccc(Br)n3)s2)cc1C(=O)N1CCN(C(=O)CN)CC1 ... yes (1)
Cc1cccc(-c2nn(C(=S)Nc3ccccc3)cc2-c2ccnc3ccccc23)n1 ... no (0)
COc1ccc(N(C(=O)Nc2c(C)cccc2C)c2cc(Nc3ccc(N4CCN(C)CC4)cc3)ncn2)c(OC)c1 ... no (0)
NC1(c2ccc(-c3nc4ccn5c(=O)[nH]nc5c4cc3-c3ccccc3)cc2)CCC1 ... no (0)
CNc1nc(-c2ccc3c(N)n[nH]c3c2)cc(N2C[C@@H](C(=O)NC3CCCCC3)CC[C@H]2C)n1 ... no (0)
O=C(O)c1ccc(-c2c[nH]c3ncc(-c4ccccc4)cc23)cc1C1CCCC1 ... yes (1)
NC(=O)c1cc2c(-c3cccc(-c4ccccc4)c3)cnc(N)c2s1 ... no (0)

###

Each entry below carries its recorded residual activity.
- experimental-target: TAOK1 (human) (UniProt Q7L7X3)
- Sequence (Q7L7X3 whole entry, looked up): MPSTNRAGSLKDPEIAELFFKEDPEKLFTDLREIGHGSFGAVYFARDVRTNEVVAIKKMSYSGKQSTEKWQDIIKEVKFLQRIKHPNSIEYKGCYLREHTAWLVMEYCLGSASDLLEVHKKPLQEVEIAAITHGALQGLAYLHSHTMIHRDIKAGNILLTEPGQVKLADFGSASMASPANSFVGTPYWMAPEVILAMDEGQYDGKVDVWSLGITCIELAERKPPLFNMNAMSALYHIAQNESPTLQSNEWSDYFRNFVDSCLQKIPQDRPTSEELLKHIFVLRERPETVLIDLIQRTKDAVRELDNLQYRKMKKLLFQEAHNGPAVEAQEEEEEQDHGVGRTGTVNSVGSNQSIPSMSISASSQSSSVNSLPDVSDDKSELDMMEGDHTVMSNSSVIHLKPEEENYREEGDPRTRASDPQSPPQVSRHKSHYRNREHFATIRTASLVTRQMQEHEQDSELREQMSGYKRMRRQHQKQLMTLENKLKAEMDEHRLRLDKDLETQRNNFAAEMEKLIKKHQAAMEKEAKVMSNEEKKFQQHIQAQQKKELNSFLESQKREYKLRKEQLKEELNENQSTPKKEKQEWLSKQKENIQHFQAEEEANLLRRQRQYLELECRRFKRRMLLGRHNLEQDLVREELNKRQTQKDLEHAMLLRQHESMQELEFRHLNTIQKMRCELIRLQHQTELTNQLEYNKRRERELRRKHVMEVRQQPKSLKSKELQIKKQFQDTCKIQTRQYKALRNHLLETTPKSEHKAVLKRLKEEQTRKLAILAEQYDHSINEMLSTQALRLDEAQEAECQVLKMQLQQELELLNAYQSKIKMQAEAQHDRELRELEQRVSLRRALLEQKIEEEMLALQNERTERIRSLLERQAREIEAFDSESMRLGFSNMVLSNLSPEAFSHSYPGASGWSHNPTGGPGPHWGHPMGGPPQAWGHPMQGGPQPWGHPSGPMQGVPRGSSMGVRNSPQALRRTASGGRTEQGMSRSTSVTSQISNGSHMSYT
- method-summary: radiometric filter-binding kinase assay
- experimental-setup: compound 10.0 µM
assay-endpoint: residual activity (%)

NC(=O)c1ccc(-c2ccc(Oc3cncc4sc(-c5nn[nH]n5)cc34)cc2)cc1 ... 36
Nc1cccc2c1CN(C1CCC(=O)NC1=O)C2=O (stereo unspecified) ... 96
CC1=C(CO)C(=O)O[C@@H]([C@@H](C)[C@H]2CC[C@H]3[C@@H]4C[C@H]5O[C@]56[C@@H](O)C=CC(=O)[C@]6(C)C4CC[C@]23C)C1 (stereo partly specified) ... 120
CCn1c(-c2nonc2N)nc2cncc(CNC3CCNCC3)c21 ... 104
CCCCCc1ccc(/C=C/[C@H](O)[C@@H](CO)NC)cc1 ... 91
Cc1ccc2c(c1)C(=O)[C@@]1(O)CCN(c3ccccc3)C1=N2 ... 82
COc1cc2ncn(-c3cc(OCc4ccccc4S(C)(=O)=O)c(C#N)s3)c2cc1OC ... 27
Cc1ccc(=O)n(-c2ccccc2)c1 ... 100
FC(F)(F)c1ccc(-c2ccc(Oc3cncc4sc(-c5nn[nH]n5)cc34)cc2)cc1 ... 30
CC(C)(C#N)c1ccc(N2C(=O)OCc3cnc4ccc(-c5cnc6ccccc6c5)cc4c32)cc1 ... 94
c1ccc2c(-c3cnn4cc(-c5ccc(N6CCNCC6)cc5)cnc34)ccnc2c1 ... 79
O=C(NOC[C@H](O)CO)c1ccc(F)c(F)c1Nc1ccc(I)cc1Cl ... 109
NCC(=O)Nc1ccc(-n2nc(C(F)(F)F)cc2-c2ccc3c(ccc4ccccc43)c2)cc1 ... 92
NC(=O)c1cc(-c2ccnc(NC3CCCCC3)c2)nc(N2CCNCC2)c1 ... 53
N#Cc1c(C2CCNCC2)cc(-c2c(O)cccc2OCC2CC2)nc1N ... 57
NS(=O)(=O)OC[C@@H]1C[C@@H](n2ccc3c(N[C@H]4CCc5ccccc54)ncnc32)C[C@@H]1O ... 100
O=C(N[C@@H](COc1ccc2[nH]c(=O)[nH]c2c1)c1ccccc1)c1cccn(Cc2ccc(F)c(F)c2)c1=O ... 119
CCOC(=O)c1ccc(N2NC(=O)/C(=C/c3ccc([N+](=O)[O-])o3)C2=O)cc1 ... 126
CCCC(CCC)C(=O)O ... 93
NC(=O)c1c(NC(=O)C2CC2)sc2c1CCCC2 ... 69
O=C(Nc1ccccc1-c1cn2c(CN3CCNCC3)csc2n1)c1cnc2ccccc2n1 ... 97

###

- experimental-target: CHEK2 (human) (UniProt O96017)
- Sequence (O96017 whole entry, looked up): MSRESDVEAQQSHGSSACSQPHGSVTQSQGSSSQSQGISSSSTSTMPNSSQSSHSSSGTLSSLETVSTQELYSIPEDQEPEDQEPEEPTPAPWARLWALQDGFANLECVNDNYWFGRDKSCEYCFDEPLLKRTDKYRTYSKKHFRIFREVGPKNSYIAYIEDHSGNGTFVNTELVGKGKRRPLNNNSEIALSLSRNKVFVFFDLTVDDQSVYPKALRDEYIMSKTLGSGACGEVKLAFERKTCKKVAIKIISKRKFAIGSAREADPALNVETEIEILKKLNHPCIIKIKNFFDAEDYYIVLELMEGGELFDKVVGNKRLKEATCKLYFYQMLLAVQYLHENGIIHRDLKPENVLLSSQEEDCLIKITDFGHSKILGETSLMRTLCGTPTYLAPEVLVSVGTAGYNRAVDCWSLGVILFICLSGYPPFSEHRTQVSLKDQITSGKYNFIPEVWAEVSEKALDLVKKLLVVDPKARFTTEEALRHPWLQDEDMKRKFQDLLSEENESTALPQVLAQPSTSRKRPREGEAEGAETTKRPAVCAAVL
- method-summary: radiometric filter-binding kinase assay
- experimental-setup: compound 1.0 µM
Below, each entry is listed with its recorded residual activity.
assay-endpoint: residual activity (%)

Cc1ccc(=O)n(-c2ccccc2)c1 ... 119
CN1C(=O)[C@@H](Cc2c[nH]c3ccccc23)NC1=S ... 92
NC(=O)Nc1ccc2c(c1)/C(=C/c1cc(-c3cccnc3)c[nH]1)C(=O)N2 ... -5
O=C(NCCCNc1nc(Nc2cccc(CN3CCOCC3)c2)ncc1C1CC1)C1CCC1 ... 72
COc1cc(C(=O)N2CCOCC2)c(F)cc1Nc1ncc(C(F)(F)F)c(NC2CC2)n1 ... 18
Cc1nc(-c2ccc(OCC(C)C)c(C#N)c2)sc1C(=O)O ... 101
CCc1cncnc1N1CCN(Cc2nc3cc(C(F)(F)F)ccc3[nH]2)CC1 ... 73
CCn1c(-c2nonc2N)nc2cncc(CNC3CCNCC3)c21 ... 89
O=C(N[C@@H](COc1ccc2[nH]c(=O)[nH]c2c1)c1ccccc1)c1cccn(Cc2ccc(F)c(F)c2)c1=O ... 106
CC(C)(C#N)c1ccc(N2C(=O)OCc3cnc4ccc(-c5cnc6ccccc6c5)cc4c32)cc1 ... 95

###

- Tested on: AKT1 (human), P31749 [S473D]
- Sequence (P31749 whole entry S473D, looked up): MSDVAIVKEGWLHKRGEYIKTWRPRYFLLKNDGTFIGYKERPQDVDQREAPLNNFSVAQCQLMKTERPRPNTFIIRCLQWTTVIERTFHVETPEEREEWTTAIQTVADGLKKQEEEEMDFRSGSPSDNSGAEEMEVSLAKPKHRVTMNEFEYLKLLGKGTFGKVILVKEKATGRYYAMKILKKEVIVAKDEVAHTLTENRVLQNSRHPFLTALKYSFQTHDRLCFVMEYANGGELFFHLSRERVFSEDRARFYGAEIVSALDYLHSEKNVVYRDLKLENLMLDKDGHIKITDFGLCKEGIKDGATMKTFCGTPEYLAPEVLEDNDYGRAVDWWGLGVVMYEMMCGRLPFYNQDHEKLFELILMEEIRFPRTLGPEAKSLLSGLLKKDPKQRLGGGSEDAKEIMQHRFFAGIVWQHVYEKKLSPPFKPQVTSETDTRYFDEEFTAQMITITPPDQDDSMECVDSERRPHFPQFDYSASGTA
- method-summary: radiometric filter-binding kinase assay
- experimental-setup: compound 10.0 µM
The entries below are paired with their reported residual activity.
assay-endpoint: residual activity (%)

O=c1c(O)c(-c2ccc(O)c(O)c2)oc2cc(O)c(O)c(O)c12 ... 99
Oc1ccc2ccccc2c1SSc1c(O)ccc2ccccc12 ... 85
CCOC(=O)c1ccc(N2NC(=O)/C(=C/c3ccc([N+](=O)[O-])o3)C2=O)cc1 ... 79
O=C(NOCC(O)CO)c1ccc(F)c(F)c1Nc1ccc(I)cc1Cl (stereo not drawn) ... 99
COC(=O)/C=C/C(=O)OC ... 93
C=CC(=O)N1CCC[C@@H](n2nc(-c3ccc(Oc4ccccc4)cc3)c3c(N)ncnc32)C1 ... 78
O=C(O)c1ccc(-c2c[nH]c3ncc(-c4ccccc4)cc23)cc1C1CCCC1 ... 57
COc1cc(C(=O)N2CCOCC2)c(F)cc1Nc1ncc(C(F)(F)F)c(NC2CC2)n1 ... 97
O=C1Nc2nc(-c3c(O)cccc3OCC3CC3)cc(C3CCCNC3)c2CO1 (stereo not drawn) ... 55
Cc1ccc(-c2ccc3c(ccc4sc5c(c43)NC[C@@H](C)NC5=O)n2)cn1 ... 98
CCc1cncnc1N1CCN(Cc2nc3cc(C(F)(F)F)ccc3[nH]2)CC1 ... 52
Cc1cccc(Nc2nn(C)c3ncnc(N)c23)c1 ... 114
COc1cc2ncn(-c3cc(OCc4ccccc4S(C)(=O)=O)c(C#N)s3)c2cc1OC ... 85
FC(F)(F)c1ccc(-c2ccc(Oc3cncc4sc(-c5nn[nH]n5)cc34)cc2)cc1 ... 73
NC(=O)c1c(NC(=O)C2CC2)sc2c1CCCC2 ... 102
Cn1nc(Nc2ccc(F)cc2)c2c(N)ncnc21 ... 106
COc1ccc2c(c1)c1c3c(c4c5ccccc5n(C)c4c1n2CC(O)CN(C)C)C(=O)NC3=O (stereo not drawn) ... 8
O=C(NOC[C@H](O)CO)c1ccc(F)c(F)c1Nc1ccc(I)cc1Cl ... 104
Cc1ccc(Sc2cnc(Nc3cccc(Br)n3)s2)cc1C(=O)N1CCN(C(=O)CN)CC1 ... 53
CC(C)C[C@H](NC(=O)CNC(=O)c1cc(Cl)ccc1Cl)B1OC(=O)CC(CC(=O)O)(C(=O)O)O1 (stereo partly drawn) ... 83
CCn1c(-c2nonc2N)nc2cncc(CNC3CCNCC3)c21 ... 4
NC(=O)c1cc(-c2ccnc(NC3CCCCC3)c2)nc(N2CCNCC2)c1 ... 94
Nc1cccc2c1CN(C1CCC(=O)NC1=O)C2=O (stereo not drawn) ... 91
Oc1ccc(/C=C/c2cc(O)cc(O)c2)cc1 ... 89
C[C@H]1CCCC(=O)CCC/C=C/c2cc(O)cc(O)c2C(=O)O1 ... 95
CC(C)(C#N)c1ccc(N2C(=O)OCc3cnc4ccc(-c5cnc6ccccc6c5)cc4c32)cc1 ... 117
O=C1NC(=S)N[C@@H]1Cc1c[nH]c2ccccc12 ... 90
CNc1nc(-c2ccc3c(N)n[nH]c3c2)cc(N2C[C@@H](C(=O)NC3CCCCC3)CC[C@H]2C)n1 ... 36
O=C(N[C@@H](COc1ccc2[nH]c(=O)[nH]c2c1)c1ccccc1)c1cccn(Cc2ccc(F)c(F)c2)c1=O ... 90
NCC(=O)Nc1ccc(-n2nc(C(F)(F)F)cc2-c2ccc3c(ccc4ccccc43)c2)cc1 ... 53
N#Cc1c(C2CCNCC2)cc(-c2c(O)cccc2OCC2CC2)nc1N ... 63
Cc1cc(SCc2sc(-c3ccc(C(F)(F)F)cc3)nc2C)ccc1OCC(=O)O ... 105
O=C(Nc1ccccc1-c1cn2c(CN3CCNCC3)csc2n1)c1cnc2ccccc2n1 ... 88
NC(=O)c1ccc(-c2ccc(Oc3cncc4sc(-c5nn[nH]n5)cc34)cc2)cc1 ... 78
Cc1ccc2c(c1)C(=O)[C@@]1(O)CCN(c3ccccc3)C1=N2 ... 95
CCNc1nc(Nc2cc(F)c(C(=O)N3CCOCC3)cc2OC)ncc1C(F)(F)F ... 87
Cc1nc(-c2ccc(OCC(C)C)c(C#N)c2)sc1C(=O)O ... 95
CN1C(=O)[C@@H](Cc2c[nH]c3ccccc23)NC1=S ... 91
